Each item that follows carries a reported inhibition at 10 µM.
tested on: THP-1; assay: Anti-inflammatory activity in Homo sapiens (human) THP1 cells assessed as inhibition of LPS-induced IL6 production at 10 uM incubated for 30 min prior to LPS-challenge measured after 24 hr by ELISA; assay type: functional
Kindly answer with a numeric value in %, unit omitted.

smiles_string: CCOC(=O)C1=C(C)NC(C)=C(C(=O)OCC)C1c1ccc(NC(=O)Nc2cc(F)ccc2F)cc1
obs_value: 96
--
smiles_string: CCOC(=O)C1=C(C)NC(C)=C(C(=O)OCC)C1c1ccc(NC(=O)Nc2ccc(Cl)cc2)cc1
obs_value: 18
--
smiles_string: CCOC(=O)C1=C(C)NC(C)=C(C(=O)OCC)C1c1ccc(NC(=O)Nc2cc(Cl)ccc2Cl)cc1
obs_value: 51
--
smiles_string: CCOC(=O)C1=C(C)NC(C)=C(C(=O)OCC)C1c1ccc(N)cc1
obs_value: 0
--
smiles_string: CCOC(=O)C1=C(C)NC(C)=C(C(=O)OCC)C1c1ccc([N+](=O)[O-])cc1
obs_value: 0
--
smiles_string: CCOC(=O)C1=C(C)NC(C)=C(C(=O)OCC)C1c1ccc(NC(=O)Nc2ccc(F)cc2)cc1
obs_value: 68

Given the compound `CCOC(=O)C1=C(C)NC(C)=C(C(=O)OCC)C1c1ccc(NC(=O)Nc2cc(C(F)(F)F)ccc2Cl)cc1` , write its reported inhibition at 10 µM. 12

Let me know recorded inhibition at 10 µM for `CCOC(=O)C1=C(C)NC(C)=C(C(=O)OCC)C1c1ccc(NC(=O)Nc2ccc(Cl)cc2Cl)cc1` , thanks. 24

Name the recorded inhibition at 10 µM of the compound listed here: `CCOC(=O)C1=C(C)NC(C)=C(C(=O)OCC)C1c1ccc(NC(=O)Nc2ccc(Cl)cc2C(F)(F)F)cc1` 91

Give a short answer stating reported inhibition at 10 µM for `CCOC(=O)C1=C(C)NC(C)=C(C(=O)OCC)C1c1ccc(NC(=O)Nc2ccc(C(F)(F)F)cc2)cc1` . 86

Quickly give me recorded inhibition at 10 µM for `CCOC(=O)C1=C(C)NC(C)=C(C(=O)OCC)C1c1ccc(NC(=O)Nc2ccc(C#N)cc2)cc1` 8

// Input: `CCOC(=O)C1=C(C)NC(C)=C(C(=O)OCC)C1c1ccc(NC(=O)Nc2ccc(F)cc2F)cc1` . Output its inhibition at 10 µM only. 54
